- ASSAY_TEXT: folding enthalpy; higher = less favourable; fluorescence melt of hairpins on a sequencing array, two-state fit
- CONDITION_NOTES: sodium 0.088 M
Mark No for folding enthalpy values under -30 kcal/mol, and Yes for everything at or above.

{"CONSTRUCT_SEQUENCE": "GCAGAGCGAAAGCTCCGC ((.((((....)))).))", "CATEGORY": "Yes"}
{"CONSTRUCT_SEQUENCE": "GATCTCGGTAGAGATC ((((((....))))))", "CATEGORY": "No"}
{"CONSTRUCT_SEQUENCE": "GCCATGCGAAAGCAACGC ((..(((....)))..))", "CATEGORY": "Yes"}
{"CONSTRUCT_SEQUENCE": "GGAGGCGAAAGCCATCC ((((((....))).)))", "CATEGORY": "Yes"}
{"CONSTRUCT_SEQUENCE": "GACAGAGGAAACTTTGTC ((((.((....)).))))", "CATEGORY": "Yes"}
{"CONSTRUCT_SEQUENCE": "GTAGTCCGAAAGGAGTAC (((.(((....))).)))", "CATEGORY": "No"}
{"CONSTRUCT_SEQUENCE": "GGGGAGGGAAACCTCCTC (.(((((....))))).)", "CATEGORY": "Yes"}
{"CONSTRUCT_SEQUENCE": "GCAGGCGAAAGCCCTGC ((((((....))).)))", "CATEGORY": "Yes"}
{"CONSTRUCT_SEQUENCE": "TTTTCGAAAGAAAA (((((....)))))", "CATEGORY": "Yes"}
{"CONSTRUCT_SEQUENCE": "CTGAAGAAATTCAG (((((....)))))", "CATEGORY": "Yes"}
{"CONSTRUCT_SEQUENCE": "GCTTCCCGAAAGGGAGC (((.(((....))))))", "CATEGORY": "Yes"}
{"CONSTRUCT_SEQUENCE": "GAGCCGGGAAACCGACCC (.(.(((....))).).)", "CATEGORY": "Yes"}
{"CONSTRUCT_SEQUENCE": "GCAGACGAAAGTCAGTGC ((((((....)))..)))", "CATEGORY": "Yes"}
{"CONSTRUCT_SEQUENCE": "GATCAGAATGCTGATC ((((((....))))))", "CATEGORY": "Yes"}
{"CONSTRUCT_SEQUENCE": "GATCCTCCATAGGATC ((((((....))))))", "CATEGORY": "No"}
{"CONSTRUCT_SEQUENCE": "GTTAACGGAAACGTTAGC (.(((((....))))).)", "CATEGORY": "Yes"}
{"CONSTRUCT_SEQUENCE": "GATCCCGAAAGGGTAATC ((((((....)))..)))", "CATEGORY": "Yes"}
{"CONSTRUCT_SEQUENCE": "GATCACCTTGGTGATC ((((((....))))))", "CATEGORY": "No"}
{"CONSTRUCT_SEQUENCE": "GTGGGTCGAAAGACACAC (((.(((....))).)))", "CATEGORY": "No"}
{"CONSTRUCT_SEQUENCE": "GCGCTGCGAAAGCCGAGC ((.(.((....)).).))", "CATEGORY": "Yes"}
{"CONSTRUCT_SEQUENCE": "GAGCACCGAAAGGTTCTC (((.(((....))).)))", "CATEGORY": "Yes"}
{"CONSTRUCT_SEQUENCE": "GGATACGAAAGTATCC ((((((....))))))", "CATEGORY": "No"}
{"CONSTRUCT_SEQUENCE": "GCGAGGTTCGC ((((...))))", "CATEGORY": "Yes"}
{"CONSTRUCT_SEQUENCE": "GAGTGTGGAAACACACCC (.(((((....))))).)", "CATEGORY": "Yes"}
{"CONSTRUCT_SEQUENCE": "GGTATCGAAAGATCGACC ((((((....)))..)))", "CATEGORY": "Yes"}
{"CONSTRUCT_SEQUENCE": "GGACTCGAAAGAGGGTCC ((((((....)))..)))", "CATEGORY": "Yes"}
{"CONSTRUCT_SEQUENCE": "CATCCGAAAGGATG (((((....)))))", "CATEGORY": "Yes"}
{"CONSTRUCT_SEQUENCE": "GATCGGGCTGCCGATC ((((((....))))))", "CATEGORY": "No"}
{"CONSTRUCT_SEQUENCE": "GCTGAGGGAAACCTCAAC (.(((((....))))).)", "CATEGORY": "Yes"}
{"CONSTRUCT_SEQUENCE": "GATCACACCTGTGATC ((((((....))))))", "CATEGORY": "No"}
{"CONSTRUCT_SEQUENCE": "GATCATATCTATGATC ((((((....))))))", "CATEGORY": "No"}
{"CONSTRUCT_SEQUENCE": "GATCTCCGGGGAGATC ((((((....))))))", "CATEGORY": "No"}
{"CONSTRUCT_SEQUENCE": "GTCTTCCGAAAGGAGGAC (((.(((....))).)))", "CATEGORY": "No"}
{"CONSTRUCT_SEQUENCE": "GATCTCTTATGAGATC ((((((....))))))", "CATEGORY": "No"}
{"CONSTRUCT_SEQUENCE": "GATCAGGAATCTGATC ((((((....))))))", "CATEGORY": "No"}
{"CONSTRUCT_SEQUENCE": "GTCATTCGAAAGAAGAC (((.(((....))))))", "CATEGORY": "Yes"}
{"CONSTRUCT_SEQUENCE": "GAATAGCCGAAAGGCTTC (((..(((....))))))", "CATEGORY": "Yes"}
{"CONSTRUCT_SEQUENCE": "GCCGTCTCGAAAGAGGGC (((..(((....))))))", "CATEGORY": "Yes"}
{"CONSTRUCT_SEQUENCE": "GGTAGTCGAAAGACCACC (((.(((....))).)))", "CATEGORY": "Yes"}
{"CONSTRUCT_SEQUENCE": "GATCTCTAAGAGATC ((((((...))))))", "CATEGORY": "No"}
{"CONSTRUCT_SEQUENCE": "GTCTCCGAAAGGATAGAC ((((((....)))..)))", "CATEGORY": "Yes"}
{"CONSTRUCT_SEQUENCE": "GTACTGCGAAAGCACTAC (((.(((....))).)))", "CATEGORY": "Yes"}
{"CONSTRUCT_SEQUENCE": "CGCGGACGGAAACGTGCG (((..(((....))))))", "CATEGORY": "No"}
{"CONSTRUCT_SEQUENCE": "GATCGTCTATACGATC ((((((....))))))", "CATEGORY": "No"}
{"CONSTRUCT_SEQUENCE": "GATCTGGGACAGATC ((((((...))))))", "CATEGORY": "No"}
{"CONSTRUCT_SEQUENCE": "GCATCCACGAAAGTGTGC (((..(((....))))))", "CATEGORY": "Yes"}
{"CONSTRUCT_SEQUENCE": "GGGAAGGGAAACTTTCCC (((((.(....).)))))", "CATEGORY": "Yes"}
{"CONSTRUCT_SEQUENCE": "GATCCAGTGTGGATC ((((((...))))))", "CATEGORY": "No"}
{"CONSTRUCT_SEQUENCE": "GCCTCGCGAAAGCGAAGC ((.((((....)))).))", "CATEGORY": "Yes"}
{"CONSTRUCT_SEQUENCE": "GACGATGGAAACATCGTC (((((((....)))))))", "CATEGORY": "No"}
